Test: Clearance in dog after iv administration
Assay type: ADME, organism-based, Canis lupus familiaris
Conditions: in vivo
Each entry below carries its recorded clearance.
Kindly answer with a numeric value in mL/min/kg, unit omitted.

Observe how each entry below is paired with its result.
{"molecule": "O=P1(N(CCCl)CCCl)NCCCO1 (stereo not drawn) [CYCLOPHOSPHAMIDE ANHYDROUS]", "unit-of-measure": "mL/min/kg", "test-value": 20}
{"molecule": "CC1CCCC(C)N1CCCC(O)(c1ccccc1)c1ccccn1 (stereo not drawn) [PIRMENOL]", "unit-of-measure": "mL/min/kg", "test-value": 6}
{"molecule": "CN1C(=O)OC(C)(C)C1=O [TRIMETHADIONE]", "unit-of-measure": "mL/min/kg", "test-value": 2.9}
{"molecule": "CO/N=C(\\C(=O)N[C@@H]1C(=O)N2C(C(=O)O)=CCS[C@H]12)c1csc(N)n1 [CEFTIZOXIME]", "unit-of-measure": "mL/min/kg", "test-value": 3.3}
{"molecule": "CC(=O)CC(c1ccccc1)c1c(O)c2ccccc2oc1=O (stereo not drawn) [WARFARIN]", "unit-of-measure": "mL/min/kg", "test-value": 0.3}

[in] Consider the molecule C[C@]12C=CC(=O)C=C1CC[C@@H]1[C@@H]2C(=O)C[C@@]2(C)[C@H]1CC[C@]2(O)C(=O)CO [PREDNISONE] and give its measured clearance.
[out] 27

[in] Try this molecule too: C#C[C@]1(O)CC[C@H]2[C@@H]3CCc4cc(O)ccc4[C@H]3CC[C@@]21C [ETHINYL ESTRADIOL]
[out] 25

====

Experiment: Volume of distribution at steady state in human after iv administration
Format: ADME, organism-based
Conditions: in vivo, read-out: Vdss
assay-readout: Vd
Dear colleague, please send the value followed by its unit.

Observe how each entry below is paired with its result.
{"compound": "O=C1NC(=O)C(c2ccccc2)(c2ccccc2)N1", "test-value": "1.4 L/kg"}
{"compound": "CO[C@@]1(NC(=O)C2SC(=C(C(N)=O)C(=O)O)S2)C(=O)N2C(C(=O)O)=C(CSc3nnnn3C)CS[C@@H]21 (stereo partly drawn)", "test-value": "0.13 L/kg"}

Consider now this further compound.
[in] Consider the compound O=C(OC1C[C@@H]2CC3C[C@@H](C1)N2CC3O)c1c[nH]c2ccccc12 (stereo partly drawn) and give its measured Vd.
[out] 11 L/kg

====

Each entry below carries its recorded Vd.
Experiment: Volume of distribution at steady state in dog after iv administration
Assay type: ADME, organism-based, Canis lupus familiaris
Conditions: in vivo, read-out: Vdss
Kindly answer with a numeric value in L/kg, unit omitted.

{"compound": "O=C1NC(=O)C(c2ccccc2)(c2ccccc2)N1", "Vd, L/kg": 1}
{"compound": "C[C@@H](O)[C@H]1C(=O)N2C(C(=O)O)=C(SCCOC(N)=O)S[C@H]12", "Vd, L/kg": 0.22}
{"compound": "CC(=O)CC(c1ccccc1)c1c(O)c2ccccc2oc1=O (stereo unspecified)", "Vd, L/kg": 0.28}
{"compound": "CO/N=C(\\C(=O)N[C@@H]1C(=O)N2C(C(=O)[O-])=C(C[N+]34CCC(C(N)=O)(CC3)CC4)CS[C@H]12)c1nsc(N)n1", "Vd, L/kg": 0.23}
{"compound": "CC(C)(C)S(=O)(=O)C[C@@H](Cc1ccccc1)C(=O)N[C@@H](Cc1cnc[nH]1)C(=O)N[C@@H](CC1CCCCC1)[C@@H](O)[C@@H](O)C1CC1", "Vd, L/kg": 1.5}

[in] Consider the compound O=P(O)(O)C(Sc1ccc(Cl)cc1)P(=O)(O)O and give its measured Vd.
[out] 3

[in] Try this compound too: N[C@@H](Cc1ccc(O)c(O)c1)C(=O)O
[out] 0.4

[in] Try this compound too: O=C(OC1C[C@@H]2CC3C[C@@H](C1)N2CC3O)c1c[nH]c2ccccc12 (stereo partly specified)
[out] 9.6

[in] Try this compound too: CN1C(C(=O)Nc2nccs2)=C(O)c2ccccc2S1(=O)=O
[out] 0.2

[in] Try this compound too: CO[C@@]1(NC(=O)C2SC(=C(C(N)=O)C(=O)O)S2)C(=O)N2C(C(=O)O)=C(CSc3nnnn3C)CS[C@@H]21 (stereo partly specified)
[out] 0.25

[in] Try this compound too: C[C@@H]1[C@H](O)[C@@H](C)/C=C/C=C/C=C/C=C/C=C/C=C/C=C/[C@H](O[C@@H]2O[C@H](C)[C@@H](O)[C@H](N)[C@@H]2O)C[C@@H]2O[C@](O)(C[C@@H](O)C[C@@H](O)[C@H](O)CC[C@@H](O)C[C@@H](O)CC(=O)O[C@H]1C)C[C@H](O)[C@H]2C(=O)O
[out] 0.5

====

Experiment: Clearance in rat after iv administration
Format: ADME, organism-based
Conditions: in vivo
Each entry below carries its recorded clearance.
Kindly answer with a numeric value in mL/min/kg, unit omitted.

{"compound": "CO/N=C(\\C(=O)N[C@@H]1C(=O)N2C(C(=O)[O-])=C(C[n+]3ccn4ncccc43)CS[C@H]12)c1nsc(N)n1", "clearance / mL/min/kg": 9.4}
{"compound": "C[C@@H]1[C@H](O)[C@@H](C)/C=C/C=C/C=C/C=C/C=C/C=C/C=C/[C@H](O[C@@H]2O[C@H](C)[C@@H](O)[C@H](N)[C@@H]2O)C[C@@H]2O[C@](O)(C[C@@H](O)C[C@@H](O)[C@H](O)CC[C@@H](O)C[C@@H](O)CC(=O)O[C@H]1C)C[C@H](O)[C@H]2C(=O)O", "clearance / mL/min/kg": 2}
{"compound": "N[C@@H](Cc1ccc(O)c(O)c1)C(=O)O", "clearance / mL/min/kg": 109}
{"compound": "C[C@@H](O)[C@H]1C(=O)N2C(C(=O)O)=C(S[C@@H]3CN[C@H](C(=O)N(C)C)C3)[C@H](C)[C@H]12", "clearance / mL/min/kg": 47}
{"compound": "COCCOC(=O)C1=C(C)NC(C)=C(C(=O)OC(C)C)C1c1cccc([N+](=O)[O-])c1 (stereo not given)", "clearance / mL/min/kg": 56}

[in] Consider the compound COc1ccc2c(c1)c(CC(=O)O)c(C)n2C(=O)c1ccc(Cl)cc1 and give its measured clearance.
[out] 0.43

[in] Try this compound too: CO[C@@]1(NC(=O)C(C(=O)[O-])c2ccc(O)cc2)C(=O)N2C(C(=O)[O-])=C(CSc3nnnn3C)CO[C@@H]21.[Na+].[Na+] (stereo not given in full) [MOXALACTAM DISODIUM]
[out] 9.4

[in] Try this compound too: Cc1cn([C@H]2C[C@H](N=[N+]=[N-])[C@@H](CO)O2)c(=O)[nH]c1=O
[out] 46

[in] Try this compound too: CCOC(=O)C1(c2ccccc2)CCN(C)CC1
[out] 253

[in] Try this compound too: Cc1cc(O)c(C(=O)N[C@@H](C(=O)N[C@@H]2C(=O)N3C(C(=O)O)=C(CSc4nnnn4C)CS[C@H]23)c2ccc(O)cc2)cn1 [CEFPIRAMIDE]
[out] 9.5

[in] Try this compound too: C[C@@H](O)[C@H]1C(=O)N2C(C(=O)[O-])=C(SC3Cn4cnc[n+]4C3)[C@H](C)[C@H]12 (stereo not given in full)
[out] 16

[in] Try this compound too: C[C@@H](O)[C@H]1C(=O)N2C(C(=O)O)=C(COC(N)=O)S[C@H]12
[out] 16

[in] Try this compound too: CN1CCN(c2c(F)cc3c(=O)c(C(=O)O)cn(CCF)c3c2F)CC1
[out] 5.7

[in] Try this compound too: O=P(O)(O)C(Sc1ccc(Cl)cc1)P(=O)(O)O
[out] 3.3

[in] Try this compound too: c1ccc(C2(N3CCCCC3)CCCCC2)cc1
[out] 122

====

Each entry below carries its recorded log10(Vdss).
Assay: Volume of distribution at steady state in rat after iv administration
Format: ADME, organism-based
Settings: in vivo
Please keep in mind that the values are log10 of Vdss expressed in L/kg.

{"molecule": "N=C(N)N1CCC[C@@H](CNC(=O)C[C@H](NS(=O)(=O)c2ccc3ccccc3c2)C(=O)N(CC(=O)O)C2CC2)C1 [NAPSAGATRAN ANHYDROUS]", "test-value": -0.21}
{"molecule": "CO/N=C(\\C(=O)N[C@@H]1C(=O)N2C(C(=O)[O-])=C(C[N+]34CCC(C(N)=O)(CC3)CC4)CS[C@H]12)c1nsc(N)n1", "test-value": -0.66}
{"molecule": "COC(=O)C1=C(C)NC(C)=C(C(=O)OCCN(C)Cc2ccccc2)C1c1cccc([N+](=O)[O-])c1 (stereo unspecified)", "test-value": 0.11}
{"molecule": "c1ccc(C2(N3CCCCC3)CCCCC2)cc1", "test-value": 1.36}

[in] Consider the molecule Cc1cc(O)c(C(=O)N[C@@H](C(=O)N[C@@H]2C(=O)N3C(C(=O)O)=C(CSc4nnnn4C)CS[C@H]23)c2ccc(O)cc2)cn1 [CEFPIRAMIDE] and give its measured log10(Vdss).
[out] -0.59

[in] Try this molecule too: Nc1nc(/C(=N/O)C(=O)N[C@@H]2C(=O)N3C(C(=O)O)=C(/C=C4\CCN(CC(F)(F)F)C4=O)CS[C@H]23)cs1
[out] -0.80
